target: proMMP9(20-445;ΔFnII) (SEQ ID NO:6) (Homo sapiens, UniProt P14780, DEL216-390); construct: start methionine (N); test: ThermoFluor with proMMP9(20-445;ΔFnII); details: read-out: proMMP9(20-445; ΔFnII) (SEQ ID NO: 6) binding
Sequence (P14780 with tags, fused parts or gaps DEL216-390): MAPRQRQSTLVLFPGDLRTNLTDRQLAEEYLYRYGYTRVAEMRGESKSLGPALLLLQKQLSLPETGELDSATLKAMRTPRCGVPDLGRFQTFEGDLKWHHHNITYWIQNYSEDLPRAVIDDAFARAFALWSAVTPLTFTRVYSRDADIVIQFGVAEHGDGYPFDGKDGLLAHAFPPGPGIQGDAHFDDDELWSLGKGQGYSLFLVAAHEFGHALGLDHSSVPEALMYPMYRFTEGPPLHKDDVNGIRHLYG
Quick reference for Kd among some compounds

Reference set, count: 5
test_smiles	system_name	result_value
CC(C)Oc1ccc(S(N)(=O)=O)cc1Nc1nc(-c2ccc(C3=CCNCC3)cc2)cs1	proMMP9(20-445;ΔFnII) (SEQ ID NO:6) (Homo sapiens, UniProt P14780, DEL216-390)	18 nM
CC(C)Oc1ccc(C(N)=O)cc1Nc1nc(-c2ccc(CN3CCN(C4CC4)CC3)cc2)cs1	proMMP9(20-445;ΔFnII) (SEQ ID NO:6) (Homo sapiens, UniProt P14780, DEL216-390)	22 nM
CC(C)Oc1ccc(C(N)=O)cc1Nc1nc(-c2ccc(OCCN3CCN(C)CC3)cc2)cs1	proMMP9(20-445;ΔFnII) (SEQ ID NO:6) (Homo sapiens, UniProt P14780, DEL216-390)	16 nM
CC(C)Oc1ccc(F)cc1Nc1nc(-c2ccc(OCCN3CCOCC3)cc2)cs1	proMMP9(20-445;ΔFnII) (SEQ ID NO:6) (Homo sapiens, UniProt P14780, DEL216-390)	> 19000 nM
CC(C)Oc1ccc(S(N)(=O)=O)cc1Nc1nc(-c2ccc(N3CCNCC3)c(Br)c2)cs1	proMMP9(20-445;ΔFnII) (SEQ ID NO:6) (Homo sapiens, UniProt P14780, DEL216-390)	17 nM

Prompt: State the recorded Kd for this entry: CC(C)Oc1ccc(C(N)=O)cc1Nc1nc(-c2ccc(CN3CCN(C)CC3)cc2)cs1
Response: 20 nM

Prompt: Try this compound next: CC(C)Oc1ccc(S(N)(=O)=O)cc1Nc1nc(-c2ccc(C3=CCN(C)CC3)cc2)cs1
Response: 17 nM

Prompt: Try this compound next: COc1ccc(F)cc1Nc1nc(-c2ccc(OCCN3CCOCC3)cc2)cs1
Response: > 19000 nM

Prompt: Try this compound next: CC(C)Oc1ccc(S(N)(=O)=O)cc1Nc1nc(-c2ccc(CN3CCN(C4CC4)CC3)cc2)cs1
Response: 36 nM

Prompt: Try this compound next: CC(C)Oc1ccc(C(N)=O)cc1Nc1nc(-c2ccc(C3=CCNCC3)cc2)cs1
Response: 14 nM

Prompt: Try this compound next: COc1ccncc1Nc1nc(-c2ccc(OCCN3CCC(F)CC3)cc2)cs1
Response: 4300 nM

Prompt: Try this compound next: COc1ccc(F)cc1Nc1nc(-c2ccc(OCCN3CCN(C4CC4)CC3)cc2)cs1
Response: > 76000 nM

Prompt: Try this compound next: NS(=O)(=O)c1ccc(OC(F)(F)F)c(Nc2nc(-c3ccc(OCCN4CCOCC4)cc3)cs2)c1
Response: 1200 nM

Prompt: Try this compound next: CC(C)Oc1ccc(C(N)=O)cc1Nc1nc(-c2ccc(OCCN3CCN(C4CC4)CC3)cc2)cs1
Response: 24 nM

Prompt: Try this compound next: CCN1CC=C(c2ccc(-c3csc(Nc4cc(C(N)=O)ccc4OC(C)C)n3)cc2)CC1
Response: 17 nM

Prompt: Try this compound next: COc1ccc(F)cc1Nc1nc(-c2ccc(CN3CCN(C4CC4)CC3)cc2)cs1
Response: 35000 nM

Prompt: Try this compound next: CC(C)Oc1ccc(C(N)=O)cc1Nc1nc(-c2ccc(CN3CCOCC3)cc2)cs1
Response: 56 nM
